Test system: CD2F1 mice, L1210 leukemia ip, survival T/C
protocolNotes: NCI In Vivo Anticancer Drug Screen. Data for tumor model L1210 Leukemia (intraperitoneal) in CD2F1 (CDF1) mice
recordedConditions: endpoint: mean survival time; dose: 50.0 mg/kg/injection; schedule: Q01DX009 (ip); vehicle: saline with Tween-80; higher = longer survival
Inconclusive results and toxic doses are left out.
observationType: T/C

Recorded results for 3 molecules are shown here.
molecule | T/C
COC(=O)c1ccc[n+](CC(=O)c2ccccc2)c1 | 101 % of control
CN(C)CCOc1ccccc1Cc1ccccc1 | 104 % of control
Cc1ccc(C)c(C(=O)c2ccccc2C(N)=O)c1 | 94 % of control

# batch: return T/C for each of the 3 molecules below
1. O=C1C(Br)CCC1C(O)(C(F)(F)F)C(F)(F)F (stereo unspecified)
2. C/C=C\c1ccc(OCCOC(=O)Nc2ccc(Cl)cc2C)c(OC)c1
3. C/C=C(\C)C(C)O (stereo unspecified)

Result:
1: 98 % of control; 2: 87 % of control; 3: 98 % of control
